system: HIV; assay: HeLa-CD4 plaque reduction assay (HIV in vitro); assay type: cell-based; conditions: Human immunodeficiency virus 1
Readout name: IC50 (µM)

1) S=C1Nc2ccccc2Sc2ccccc21 5
2) O=[N+]([O-])c1ccc2c(c1)C(=S)Nc1ccccc1S2 14.4
3) Fc1cccc2c1Sc1ccccc1NC2=S 15.4
